Data provenance: ChEMBL document CHEMBL3988442

Target entity: Tyrosyl-tRNA synthetase, putative (Trypanosoma cruzi (strain CL Brener)) (UniProt Q4DSP6)
Sequence (Q4DSP6 as listed by the source): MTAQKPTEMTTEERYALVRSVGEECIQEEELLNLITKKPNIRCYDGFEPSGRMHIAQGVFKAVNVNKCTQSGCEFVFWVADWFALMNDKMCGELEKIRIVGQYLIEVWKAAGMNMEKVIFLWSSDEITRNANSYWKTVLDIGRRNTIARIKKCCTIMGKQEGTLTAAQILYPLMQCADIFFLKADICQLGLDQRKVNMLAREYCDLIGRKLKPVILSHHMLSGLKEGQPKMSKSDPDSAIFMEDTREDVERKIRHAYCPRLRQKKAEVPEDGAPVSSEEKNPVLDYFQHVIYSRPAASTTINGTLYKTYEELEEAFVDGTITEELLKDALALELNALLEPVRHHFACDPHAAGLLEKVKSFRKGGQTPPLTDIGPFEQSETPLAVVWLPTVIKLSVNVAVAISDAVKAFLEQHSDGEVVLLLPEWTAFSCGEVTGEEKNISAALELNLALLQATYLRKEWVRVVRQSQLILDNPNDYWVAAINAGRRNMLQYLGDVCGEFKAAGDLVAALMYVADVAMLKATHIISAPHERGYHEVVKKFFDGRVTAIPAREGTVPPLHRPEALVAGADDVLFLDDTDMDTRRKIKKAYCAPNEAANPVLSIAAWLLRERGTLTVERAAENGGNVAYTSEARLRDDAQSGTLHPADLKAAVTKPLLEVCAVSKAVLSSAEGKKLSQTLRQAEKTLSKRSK
Assay procedure: Trypanosoma cruzi tyrosyl tRNA synthetase (TcYRS) SOP
Assay type: functional
Parameters: scale not given: direction of the effect not stated beside the values
Condition: 30 µM
Measured parameter: Percent Effect (%)
Kindly provide the numeric value in % only, without the unit symbol.

Example results:
>>> print(df.to_string())
                                   molecule  numeric_result
0  Cc1ccsc1[C@@H]1CCN(C(=O)CCC(=O)N2CCCCCC2)C[C@H]1O            10.3
1  O=C(NCCNC(=O)N1CCC(c2ccccc2)C1)C1CC1 (centres undefined)            14.6

Item CCS(=O)(=O)N1CCC(c2nc3ccc(-c4ccccc4)cn3n2)CC1 with Tyrosyl-tRNA synthetase, putative (Trypanosoma cruzi (strain CL Brener)) (UniProt Q4DSP6) - Percent Effect?
8.64

Item CNC(=O)[C@@H]1C[C@H]2CN(C(=O)c3ccco3)C[C@H]2N1C with Tyrosyl-tRNA synthetase, putative (Trypanosoma cruzi (strain CL Brener)) (UniProt Q4DSP6) - Percent Effect?
5

Item CC(C)(C)n1cc(C(=O)N2CCCN(Cc3cccs3)CC2)cn1 with Tyrosyl-tRNA synthetase, putative (Trypanosoma cruzi (strain CL Brener)) (UniProt Q4DSP6) - Percent Effect?
9.76

Item CC(C#N)CSc1ccccc1NCC(=O)NCc1ccccc1 (centres undefined) with Tyrosyl-tRNA synthetase, putative (Trypanosoma cruzi (strain CL Brener)) (UniProt Q4DSP6) - Percent Effect?
-5

Item Cc1oc(C)c(C(=O)N2CCCN(Cc3cscn3)CC2)c1C with Tyrosyl-tRNA synthetase, putative (Trypanosoma cruzi (strain CL Brener)) (UniProt Q4DSP6) - Percent Effect?
9.41

Item Cc1nonc1CN(C)CC1(O)CCCN(CCC2CCCCC2)C1=O (centres undefined) with Tyrosyl-tRNA synthetase, putative (Trypanosoma cruzi (strain CL Brener)) (UniProt Q4DSP6) - Percent Effect?
18.5

Item CN(C)c1ccc(CCCNC(=O)Nc2ccc(C#N)cc2)cc1 with Tyrosyl-tRNA synthetase, putative (Trypanosoma cruzi (strain CL Brener)) (UniProt Q4DSP6) - Percent Effect?
14.6

Item CCc1nc(CN2CCCN(c3nc4ccccc4o3)CC2)no1 with Tyrosyl-tRNA synthetase, putative (Trypanosoma cruzi (strain CL Brener)) (UniProt Q4DSP6) - Percent Effect?
8.64

Item Cc1ccc(C(=O)N(C)Cc2cc(Br)cs2)c(=O)[nH]1 with Tyrosyl-tRNA synthetase, putative (Trypanosoma cruzi (strain CL Brener)) (UniProt Q4DSP6) - Percent Effect?
7.79

Item CNC(=O)C1Cn2ccnc2C2(CCN(Cc3cccc(C)n3)CC2)O1 (centres undefined) with Tyrosyl-tRNA synthetase, putative (Trypanosoma cruzi (strain CL Brener)) (UniProt Q4DSP6) - Percent Effect?
10.3

Item CN1CC(=O)N(c2cccc(F)c2)CC12CCN(S(C)(=O)=O)C2 (centres undefined) with Tyrosyl-tRNA synthetase, putative (Trypanosoma cruzi (strain CL Brener)) (UniProt Q4DSP6) - Percent Effect?
10.3

Item COCCNC(=O)C1(c2ccccc2C)CCOCC1 with Tyrosyl-tRNA synthetase, putative (Trypanosoma cruzi (strain CL Brener)) (UniProt Q4DSP6) - Percent Effect?
-6.17

Item CC(C)CCN1CCC2(CC1)CN(C(=O)c1cnccn1)CCO2 with Tyrosyl-tRNA synthetase, putative (Trypanosoma cruzi (strain CL Brener)) (UniProt Q4DSP6) - Percent Effect?
12.5

Item c1ccc(-c2cc(CN3CCC(c4ccn[nH]4)CC3)on2)cc1 with Tyrosyl-tRNA synthetase, putative (Trypanosoma cruzi (strain CL Brener)) (UniProt Q4DSP6) - Percent Effect?
7.32
